Read-out: Interferon-gamma inducible Protein 10 (IP10), CXCL10 (gene 3627)
protocol: BSK_KF3CT_IP10: BioMAP Diversity Plus: KF3CT Assay for Interferon-gamma inducible Protein 10 (IP10) Biomarker Activity (AID 2283068)
condition.notes: primary human keratinocytes with fibroblasts; actives raise or lower the signal
The source made the active and inactive calls. How the source made its calls: active means hit-call score of the fitted dose curve at least 0.9, where 1 is the maximum; inactive means score below 0.9.
Assign a class; possible classes are yes (1) = active, no (0) = inactive

C[C@]12CC[C@@H]3c4ccc(O)cc4CC[C@H]3[C@@H]1CCC2=O
no (0)
CCCCCCCCCC(=O)O
no (0)
CO[C@H]1/C=C/O[C@@]2(C)Oc3c(C)c(O)c4c(O)c(c(/C=N/N5CCN(C)CC5)c(O)c4c3C2=O)NC(=O)/C(C)=C\C=C\[C@H](C)[C@H](O)[C@@H](C)[C@@H](O)[C@@H](C)[C@H](OC(C)=O)[C@@H]1C
no (0)

Task item: Could you please tell me the result logged for `CC/C(=C(/CC)c1ccc(O)cc1)c1ccc(O)cc1` in this assay?
Reply: yes (1)

Task item: Could you please tell me the result logged for CN1C(=O)N(c2ccccc2Br)Cc2cnc(Nc3ccc4c(c3)OCC(CO)O4)nc21 (centres undefined) in this assay?
Reply: yes (1)

Task item: Could you please tell me the result logged for `Cc1c2ccccc2c(C)c2c1ccc1ccccc12` in this assay?
Reply: no (0)

Source of measurements: PubChem BioAssay (EPA / NIEHS)
